Every entry's value here was drawn from patent US9018214B2.

Molecular target: BIR3 domain of human cIAP-1 (residues 267-363) (Homo sapiens (Human))
Assay: cIAP-1 in vitro competitive displacement binding assay (fluorescence polarization; Probe A AVPIK(5&6FAM)-amide or Probe B AbuRPFK(5&6FAM)-amide)
Counter-ions that a name gives are not always drawn.
Give measured IC50 for each item. Keep answers brief.

# input compound: C[C@@H]1CN(CC(=O)N2CC(C)(C)c3ncc(C(F)(F)C4CCC4)cc32)[C@@H](CN2CCCC2=O)CN1 [Example 226, dihydrochloride] ; wanted: its IC50
< 1000 nM

# input compound: C[C@@H]1CN(CC(=O)N2CC(C)(C)c3cnc(Oc4ccccc4Cl)cc32)[C@@H](C(=O)N2CCOCC2)CN1 [Example 165, dihydrochloride] ; wanted: its IC50
< 1000 nM

# input compound: COC[C@H]1CN[C@H](C)CN1CC(=O)N1CC(C)(C)c2cnc(C(C)(F)F)cc21 [Example 181, dihydrochloride] ; wanted: its IC50
< 1000 nM

# input compound: CC[C@H]1CN[C@H](C)CN1CC(=O)N1CC(C)(C)c2cc(F)c(S(=O)(=O)c3ccccc3)cc21 [Example 48, dihydrochloride salt] ; wanted: its IC50
< 1000 nM

# input compound: COC(=O)c1ccc2c(c1)N(C(=O)CN1CCN[C@H](C)C1)CC2 [Example 15] ; wanted: its IC50
< 10000 nM

# input compound: C[C@@H]1CN(CC(=O)N2CCc3cc(F)c(-c4ccccc4)cc32)CCN1 [Example 24, hydrochloride salt] ; wanted: its IC50
< 10000 nM

# input compound: CC[C@@H]1COCCN1C[C@H]1CN[C@H](C)CN1CC(=O)N1CC(C)(C)c2ncc(C(C)(F)F)cc21 [Example 253, dihydrochloride] ; wanted: its IC50
< 1000 nM

* * *

Molecular target: BIR3 domain of human XIAP (residues 252-350) (Homo sapiens (Human))
Assay: XIAP in vitro competitive displacement binding assay (fluorescence polarization)
Settings: read-out: IC50 or PI Xiap: IC50
pIC50: −log10 of the molar value. Counter-ions that a name gives are not always drawn.
# label = Condition met if pIC50 >= 7 else Condition not met

Determine whether measured pIC50 meets or exceeds 7 for Cc1cnn(C[C@H]2CN[C@H](C)CN2CC(=O)N2CC3(Cc4ccccc4C3)c3ccc(C#N)cc32)c1
Condition met

Determine whether measured pIC50 meets or exceeds 7 for COC[C@H]1CN[C@H](C)CN1CC(=O)N1CC(C)(C)c2cnc(Cc3ccccc3F)cc21
Condition not met

Determine whether measured pIC50 meets or exceeds 7 for C[C@@H]1CN(CC(=O)N2CC3(CC3)c3ccc(Cl)cc32)CCN1 [Example 53, hydrochloride salt]
Condition not met

Determine whether measured pIC50 meets or exceeds 7 for COC[C@H]1CN[C@H](C)CN1CC(=O)N1CC(C)(C)c2nnc(Cl)cc21 [Example 183, hydrochloride]
Condition not met

Determine whether measured pIC50 meets or exceeds 7 for COC[C@H]1CN[C@H](C)CN1CC(=O)N1CC(C)(C)c2cnc(Oc3ccccc3)cc21 [Example 74, hydrochloride salt]
Condition not met

Determine whether measured pIC50 meets or exceeds 7 for COC[C@H]1CN[C@H](C)CN1CC(=O)N1CC(C)(C)c2cnc(N(C)c3ccccc3)cc21 [Example 84, hydrochloride salt]
Condition not met

Determine whether measured pIC50 meets or exceeds 7 for COC[C@H]1CN[C@H](C)CN1CC(=O)N1CC(C)(C)c2cnc(Oc3c(C)cccc3Cl)cc21 [Example 130, hydrochloride]
Condition not met

Determine whether measured pIC50 meets or exceeds 7 for COC[C@H]1CN[C@H](C)CN1CC(=O)N1CC(C)(C)c2cnc(C(C)(F)F)cc21 [Example 181, dihydrochloride]
Condition not met

Determine whether measured pIC50 meets or exceeds 7 for C[C@@H]1CN(CC(=O)N2CC(C)(C)c3cnc(Cc4ccc(F)cc4F)cc32)[C@@H](CN2CCOCC2)CN1 [Example 219, dihydrochloride]
Condition met

Determine whether measured pIC50 meets or exceeds 7 for COC[C@H]1CN[C@H](C)CN1CC(=O)N1CC2(CN(C(C)=O)C2)c2ccc(Cl)cc21 [Example 71, hydrochloride salt]
Condition not met

Determine whether measured pIC50 meets or exceeds 7 for C[C@@H]1CN(CC(=O)N2CC(C)(C)c3cnc(Cc4ccc(F)cc4F)cc32)[C@@H](CN2CCOCC2=O)CN1 [Example 191, hydrochloride]
Condition met

* * *

Give measured IC50 for each item. Keep answers brief.
Target: BIR3 domain of human cIAP-1 (residues 267-363) (Homo sapiens (Human), UniProt Q13490)
Assay: cIAP-1 in vitro competitive displacement binding assay (fluorescence polarization; Probe A AVPIK(5&6FAM)-amide or Probe B AbuRPFK(5&6FAM)-amide)
Details: Probe B AbuRPFK(5&6FAM)-amide; read-out: IC50 or PI cIAP1: IC50
Where a name gives a salt, the structure may show the parent alone.
// return numeric value only (unit: nM, not printed)

# input compound: C[C@@H]1CN(CC(=O)N2CC3(Cc4ccccc4C3)c3ccc(Cl)cc32)[C@@H](Cn2cccn2)CN1 [Example 142, hydrochloride] ; wanted: its IC50
150

# input compound: COC[C@H]1CN[C@H](C)CN1CC(=O)N1CC(C)(C(=O)OC)c2ccc(Br)cc21 (stereo partly drawn) [Example 129, hydrochloride] ; wanted: its IC50
480

# input compound: COC[C@H]1CN[C@H](C)CN1CC(=O)N1C[C@@](C)(COC)c2ccc(Br)cc21 [Example 169, hydrochloride] ; wanted: its IC50
320

* * *

Give measured log10 of IC50 for each item. Keep answers brief.
Molecular target: BIR3 domain of human XIAP (residues 252-350) (Homo sapiens (Human), UniProt P98170)
Experiment: XIAP in vitro competitive displacement binding assay (fluorescence polarization)
Details: read-out: IC50 or PI Xiap: IC50
Counter-ions that a name gives are not always drawn.
Hey, these are logged values: log10 of IC50, nM being the unit before logging.

# input compound: C[C@@H]1CN(CC(=O)N2CC(C)(C)c3cnc(Cc4ccc(F)cc4F)cc32)[C@@H](C(=O)N(C)C)CN1 [Example 164, dihydrochloride] ; wanted: its log10 of IC50
2.08

# input compound: C[C@@H]1CN([C@@H](C)C(=O)N2CC(C)(C)c3ccc(C#N)cc32)CCN1 [Example 196, hydrochloride] ; wanted: its log10 of IC50
3.75

# input compound: C[C@@H]1CN(CC(=O)N2CC(C)(C)c3ncc(C(C)(F)F)cc32)[C@@H](CN2CCc3cccnc32)CN1 [Example 222, dihydrochloride] ; wanted: its log10 of IC50
2.34

# input compound: C[C@@H]1CN(CC(=O)N2CC(C)(C)c3ncc(Cc4ccc(F)cc4F)cc32)[C@@H](CN2CCCC2=O)CN1 [Example 199, dihydrochloride] ; wanted: its log10 of IC50
1.80

# input compound: C[C@@H]1CN(CC(=O)N2CC(C)(C)c3cnc(Cc4ccc(F)cc4F)cc32)[C@@H](CN2CCOC2=O)CN1 [Example 209, dihydrochloride] ; wanted: its log10 of IC50
1.67

# input compound: COC[C@H]1CN[C@H](C)CN1CC(=O)N1CC(C)(C)c2c[n+]([O-])c(Cc3ccc(F)cc3F)cc21 [Example 166, hydrochloride] ; wanted: its log10 of IC50
2.18

* * *

Give measured log10(IC50) for each item. Keep answers brief.
Target: BIR3 domain of human cIAP-1 (residues 267-363) (Homo sapiens (Human))
Assay: cIAP-1 in vitro competitive displacement binding assay (fluorescence polarization; Probe A AVPIK(5&6FAM)-amide or Probe B AbuRPFK(5&6FAM)-amide)
Conditions: Probe B AbuRPFK(5&6FAM)-amide; read-out: IC50 or PI cIAP1: IC50
Counter-ions that a name gives are not always drawn.
Hey, these are logged values: log10 of IC50, µM being the unit before logging.

# input compound: C[C@@H]1CN(CC(=O)N2CC(C)(C)c3cnc(Cc4ccccc4)cc32)[C@@H](C(=O)N2CCC2)CN1 [Example 100, hydrochloride salt] ; wanted: its log10(IC50)
-1.85

# input compound: COC[C@H]1CN[C@H](C)CN1CC(=O)N1CC(C)(C)c2cnc(C3CCCC3)cc21 [Example 92, hydrochloride salt] ; wanted: its log10(IC50)
-0.57

# input compound: COC[C@H]1CN[C@H](C)CN1CC(=O)N1CC(C)(C)c2cnc(Cc3cccc(OC)c3)cc21 [Example 89, hydrochloride salt] ; wanted: its log10(IC50)
-1.80

# input compound: COC[C@H]1CN[C@H](C)CN1CC(=O)N1CC(C)(C)c2cnc(Oc3ccccc3C)cc21 [Example 83, hydrochloride salt] ; wanted: its log10(IC50)
-0.96

# input compound: CCC(F)(F)c1cc2c(cn1)C(C)(C)CN2C(=O)CN1C[C@@H](C)NC[C@@H]1CN1CCCC1=O [Example 198] ; wanted: its log10(IC50)
-1.64

# input compound: C[C@@H]1CN(CC(=O)N2CC(C)(c3ccccc3)c3ccc(C#N)cc32)[C@@H](C(=O)N2CCOCC2)CN1 (stereo partly shown) [Example 149, hydrochloride] ; wanted: its log10(IC50)
-0.89

# input compound: COC[C@H]1CN[C@H](C)CN1CC(=O)N1CC(C)(C)c2cnc(Cc3ccc(OC)cc3)cc21 [Example 98, hydrochloride salt] ; wanted: its log10(IC50)
-1.64

# input compound: C[C@@H]1CN(CC(=O)N2CC(C)(C)c3cnc(Cc4ccccc4)cc32)[C@@H](CF)CN1 [Example 121, hydrochloride] ; wanted: its log10(IC50)
-1.68

# input compound: CCC1(C)CN(C(=O)CN2C[C@@H](C)NC[C@@H]2COC)c2cc(Cl)ccc21 (stereo partly shown) [Example 123, hydrochloride] ; wanted: its log10(IC50)
-0.28

# input compound: COC[C@H]1CN[C@H](C)CN1CC(=O)N1CC(C)(c2ccccn2)c2ccc(C#N)cc21 (mixture of isomers) [Example 156] ; wanted: its log10(IC50)
0.11

# input compound: C[C@@H]1CN(CC(=O)N2CC3(CC3)c3ccc(Cl)cc32)CCN1 [Example 53, hydrochloride salt] ; wanted: its log10(IC50)
0.99

# input compound: COC[C@H]1CN[C@H](C)CN1CC(=O)N1CC(C)(C)c2cnc(Cc3ccccc3Cl)cc21 [Example 78, hydrochloride salt] ; wanted: its log10(IC50)
-1.46

# input compound: COC[C@H]1CN[C@H](C)CN1CC(=O)N1CC(C)(C)c2ccc(CN3CCCC3=O)cc21 [Example 125, hydrochloride] ; wanted: its log10(IC50)
-0.14
